Target: Signal peptidase I (Escherichia coli K-12) (UniProt P00803)
Sequence (P00803 whole entry): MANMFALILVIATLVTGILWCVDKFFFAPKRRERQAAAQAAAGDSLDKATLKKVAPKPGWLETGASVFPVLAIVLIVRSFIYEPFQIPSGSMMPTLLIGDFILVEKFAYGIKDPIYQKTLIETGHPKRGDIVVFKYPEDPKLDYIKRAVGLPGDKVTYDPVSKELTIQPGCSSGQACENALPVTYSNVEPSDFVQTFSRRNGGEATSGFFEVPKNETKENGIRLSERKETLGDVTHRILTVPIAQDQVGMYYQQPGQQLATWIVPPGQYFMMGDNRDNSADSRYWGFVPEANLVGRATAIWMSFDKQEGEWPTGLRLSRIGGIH
Experiment: Inhibition of Escherichia coli type 1 signal peptidase lepB assessed as residual activity at 0.625 uM preincubated for 10 mins followed by Dabcyl-VGGTATAYGAFSRPGLE-(EDANS)-OH substrate addition measured after 2 hrs by FRET based assay (reference value: 100%)
Entries whose Activity is below 30% take yes; entries at or above 30% take no.

mol smiles	class
C[C@@H]1NC(=O)[C@@H](NC(=O)[C@H](C)NC(=O)[C@@H](NC(=O)[C@H](CCCN)NC(=O)C#Cc2ccc(-c3ccccc3)cc2)[C@@H](C)O)Cc2cn(nn2)CCO[C@@H]2C[C@@H]3OB1O[C@@H]3C2	yes
CCCCCCc1ccc(-c2ccc(C(=O)N[C@@H](CCCN)C(=O)N[C@H](C(=O)N[C@@H](C)C(=O)N[C@H]3Cc4cn(nn4)CCCN4C[C@@H]5OB(O[C@@H]5C4)[C@H](C)NC3=O)[C@@H](C)O)cc2)cc1	no
CCCCCCc1ccc(-c2ccc(C(=O)N[C@@H](CCCNC(=N)N)C(=O)N[C@H](C(=O)N[C@@H](C)C(=O)N[C@H]3Cc4cn(nn4)CCCN4C[C@@H]5OB(O[C@@H]5C4)[C@H](C)NC3=O)[C@@H](C)O)cc2)cc1	no

In: API: query returns whether the molecule falls strictly under 30% in Activity. Query: CCCCCCc1ccc(-c2ccc(C(=O)N[C@@H](Cc3cnc[nH]3)C(=O)N[C@H](C(=O)N[C@@H](C)C(=O)N[C@H]3Cc4cn(nn4)CCCN4C[C@@H]5OB(O[C@@H]5C4)[C@H](C)NC3=O)[C@@H](C)O)cc2)cc1
Out: no

In: API: query returns whether the molecule falls strictly under 30% in Activity. Query: CCCCCCc1ccc(-c2c[nH]c3ccc(C(=O)N[C@@H](CCCN)C(=O)N[C@H](C(=O)N[C@@H](C)C(=O)N[C@H]4Cc5cn(nn5)CCO[C@@H]5C[C@@H]6OB(O[C@@H]6C5)[C@H](C)NC4=O)[C@@H](C)O)cc23)cc1
Out: yes

In: API: query returns whether the molecule falls strictly under 30% in Activity. Query: CCCCCCc1ccc(-c2nc3cc(C(=O)N[C@@H](CCCN)C(=O)N[C@H](C(=O)N[C@@H](C)C(=O)N[C@H]4Cc5cn(nn5)CCO[C@@H]5C[C@@H]6OB(O[C@@H]6C5)[C@H](C)NC4=O)[C@@H](C)O)ccc3[nH]2)cc1
Out: yes
